// provenance: ChEMBL document CHEMBL2046367

Quick list: inhibition per entry.
Molecular target: Beta-secretase 1 (Homo sapiens)
Sequence (P56817 whole entry): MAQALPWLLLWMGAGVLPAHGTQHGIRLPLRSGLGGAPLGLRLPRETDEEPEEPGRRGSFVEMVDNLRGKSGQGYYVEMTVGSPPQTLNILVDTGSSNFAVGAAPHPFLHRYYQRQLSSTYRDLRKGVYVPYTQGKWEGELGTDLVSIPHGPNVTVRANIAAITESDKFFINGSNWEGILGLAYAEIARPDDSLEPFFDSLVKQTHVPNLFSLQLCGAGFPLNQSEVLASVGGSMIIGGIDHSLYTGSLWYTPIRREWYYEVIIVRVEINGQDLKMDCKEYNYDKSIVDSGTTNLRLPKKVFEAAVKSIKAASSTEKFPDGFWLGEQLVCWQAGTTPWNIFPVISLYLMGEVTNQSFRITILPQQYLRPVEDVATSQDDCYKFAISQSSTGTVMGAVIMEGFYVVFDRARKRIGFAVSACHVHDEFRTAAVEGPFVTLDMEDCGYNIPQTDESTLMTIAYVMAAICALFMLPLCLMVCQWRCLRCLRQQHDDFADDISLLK
Test: Inhibition of human recombinant BACE1 at 0.2 uM by FRET assay
Reply with a number, then the unit it belongs to.

// below: answered molecules
STRUCTURE_SMILES_STRING: C[C@@H](NC(=O)c1cc(C(=O)N[C@@H](Cc2ccccc2)[C@H](O)C(=O)Nc2cccc(-c3nn[nH]n3)c2)cc([N+](=O)[O-])c1)c1ccccc1
inhibition: 44%
//
STRUCTURE_SMILES_STRING: O=C(N[C@@H](Cc1ccccc1)[C@H](O)C(=O)Nc1cccc(-c2nn[nH]n2)c1)c1cc(Br)cc(C(=O)N2COC[C@@H]2c2ccccc2)c1
inhibition: 84%

Prompt: What measured inhibition goes with "O=C(O)c1cc(C(=O)N[C@@H](Cc2ccccc2)[C@H](O)C(=O)Nc2cccc(-c3nn[nH]n3)c2)cc(C(=O)N2COC[C@@H]2c2ccccc2)c1" ?
Response: 60%

====

Biological target: Beta-secretase 1 (Homo sapiens)
Assay: Inhibition of human recombinant BACE1 at 2 uM by FRET assay
Quick list: inhibition per entry.
Write the number in % without appending the unit.

// below: answered molecules
STRUCTURE_SMILES_STRING: CC[C@H]1COCN1C(=O)c1cc(C(=O)N[C@@H](Cc2ccccc2)[C@H](O)C(=O)Nc2cccc(-c3nn[nH]n3)c2)cc([N+](=O)[O-])c1
inhibition, %: 92
//
STRUCTURE_SMILES_STRING: O=C(N[C@@H](Cc1ccccc1)[C@H](O)C(=O)Nc1cccc(-c2nn[nH]n2)c1)c1cc(C(=O)N2CCOCC2)cc([N+](=O)[O-])c1
inhibition, %: 0

Prompt: What measured inhibition goes with "O=C(N[C@@H](Cc1ccccc1)[C@H](O)C(=O)Nc1cccc(-c2nn[nH]n2)c1)c1cc(C(=O)N2CCCC2)cc([N+](=O)[O-])c1" ?
Response: 24

====

Target: Beta-secretase 1 (Homo sapiens)
Test: Inhibition of human recombinant BACE1 at 2 uM by FRET assay
MEASURED_QUANTITY: inhibition (%)
Write the number in % without appending the unit.

// below: answered compounds
STRUCTURE_SMILES_STRING: O=C(O)c1cc(C(=O)N[C@@H](Cc2ccccc2)[C@H](O)C(=O)Nc2cccc(-c3nn[nH]n3)c2)cc(C(=O)N2COC[C@@H]2c2ccccc2)c1
UNITS_SYMBOL: %
RECORDED_MEASUREMENT: 91

STRUCTURE_SMILES_STRING: O=C(N[C@@H](Cc1ccccc1)[C@H](O)C(=O)Nc1cccc(-c2nn[nH]n2)c1)c1cc(Br)cc(C(=O)N2COC[C@@H]2c2ccccc2)c1
UNITS_SYMBOL: %
RECORDED_MEASUREMENT: 98

Prompt: What measured inhibition goes with "O=C(N[C@@H](Cc1ccccc1)[C@H](O)C(=O)Nc1cccc(-c2nn[nH]n2)c1)c1cc(C(=O)N2COC[C@@H]2c2ccccc2)cc([N+](=O)[O-])c1" ?
Response: 98

Prompt: Then what about the compound "Cc1cc(C(=O)N[C@@H](Cc2ccccc2)[C@H](O)C(=O)Nc2cccc(-c3nn[nH]n3)c2)cc(C(=O)N2COC[C@@H]2c2ccccc2)c1" ?
Response: 95

====

Biological target: Beta-secretase 1 (Homo sapiens)
Assay: Inhibition of human recombinant BACE1 at 0.2 uM by FRET assay
Quick list: inhibition per entry.
Write the number in % without appending the unit.

Prompt: What measured inhibition goes with "O=C(N[C@@H](Cc1ccccc1)[C@H](O)C(=O)Nc1cccc(-c2nn[nH]n2)c1)c1cc(C(=O)N2COC[C@@H]2c2ccccc2)cc([N+](=O)[O-])c1" ?
Response: 88

Prompt: Then what about the compound "O=C(N[C@@H](Cc1ccccc1)[C@H](O)C(=O)Nc1cccc(-c2nn[nH]n2)c1)c1cc(C(=O)N2CCCCCCC2)cc([N+](=O)[O-])c1" ?
Response: 38

Prompt: Then what about the compound "CC[C@H]1COCN1C(=O)c1cc(C(=O)N[C@@H](Cc2ccccc2)[C@H](O)C(=O)Nc2cccc(-c3nn[nH]n3)c2)cc([N+](=O)[O-])c1" ?
Response: 54

Prompt: Then what about the compound "O=C(N[C@@H](Cc1ccccc1)[C@H](O)C(=O)Nc1cccc(-c2nn[nH]n2)c1)c1cc(C(=O)N2COC[C@@H]2Cc2ccccc2)cc([N+](=O)[O-])c1" ?
Response: 45

Prompt: Then what about the compound "O=C(N[C@@H](Cc1ccccc1)[C@H](O)C(=O)Nc1cccc(-c2nn[nH]n2)c1)c1cc(C(=O)N2COC[C@@H]2c2cc(F)c(F)c(F)c2)cc([N+](=O)[O-])c1" ?
Response: 41

Prompt: Then what about the compound "CCC[C@H]1COCN1C(=O)c1cc(C(=O)N[C@@H](Cc2ccccc2)[C@H](O)C(=O)Nc2cccc(-c3nn[nH]n3)c2)cc([N+](=O)[O-])c1" ?
Response: 57
